The reported numbers originate from patent US20260217687A1.

Biological target: recombinant N-terminal MLH1 (residues 15-340) (Homo sapiens, UniProt P40692)
Construct: recombinant N-terminal MLH1 (residues 15-340)
Sequence (P40692 15-340): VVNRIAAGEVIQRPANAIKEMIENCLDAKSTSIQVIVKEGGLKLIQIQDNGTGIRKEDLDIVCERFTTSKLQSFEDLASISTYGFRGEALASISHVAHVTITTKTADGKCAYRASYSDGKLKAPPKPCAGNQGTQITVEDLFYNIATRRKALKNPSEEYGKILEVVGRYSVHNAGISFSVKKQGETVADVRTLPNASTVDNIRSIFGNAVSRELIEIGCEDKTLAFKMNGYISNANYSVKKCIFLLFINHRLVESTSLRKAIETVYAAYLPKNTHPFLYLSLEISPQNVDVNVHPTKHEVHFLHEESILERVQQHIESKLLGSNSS
Assay: Fluorescence Polarisation Assay for MLH1
Settings: 100 nM N-terminal MLH1, 5 nM probe compound
Experimental: Fluorescence Polarisation Assay for MLH1 Test compounds, as 10 mM DMSO stocks, were dispensed into a 384-well Low Flange Black Flat Bottom Polystyrene Non-binding Surface plate (Corning®, item number 3575) using a Labcyte Echo acoustic liquid handler. […] Compound plates were centrifuged for 1 minute at 250 xg for 1 minute and immediately read on a PheraStar FSX (fitted with 384-well aperture spoon and 590 675 675 FP optic module). […]
Catalogue of IC50 readings, one per entry.

In the examples that follow, each entry is paired with its recorded IC50.
COc1cccc2c1CN(C(=O)c1c(O)cc(C#N)cc1OCc1ccccc1)C2	1000 to 10000 nM
CN(C)CCOc1ccc2c(c1)CCN(C(=O)c1c(O)cc(F)cc1OCc1ccccc1)C2	1000 to 10000 nM

Inquiry: For the compound O=C(c1c(O)cc(C(F)F)cc1OCc1ccc2cnccc2c1)N1CCc2cccc(N[C@H]3CCOC3)c2C1 , give its measured IC50 value.
Reply text: < 100 nM

Inquiry: For the compound O=C1OCCC1Nc1cccc2c1CN(C(=O)c1c(O)cc(C(F)F)cc1OCc1ccccc1)CC2 (stereo not drawn) , give its measured IC50 value.
Reply text: 100 to 1000 nM

Inquiry: For the compound O=C(c1c(O)cc(C(F)F)cc1OCc1ccccc1)N1Cc2ccc(Cn3ccnc3)cc2C1 , give its measured IC50 value.
Reply text: 100 to 1000 nM

Inquiry: For the compound COCCNc1cccc2c1CN(C(=O)c1c(O)cc(C(F)F)cc1OCc1ccccc1)C2 , give its measured IC50 value.
Reply text: 100 to 1000 nM

Inquiry: For the compound O=C(c1c(O)cc(C(F)F)cc1OCc1ccccc1)N1Cc2cccc(N[C@H]3CCOC3)c2C1 , give its measured IC50 value.
Reply text: 100 to 1000 nM

Inquiry: For the compound CN1C[C@H](Nc2cccc3c2CN(C(=O)c2c(O)cc(C#N)cc2OCc2ccccc2)C3)CC1=O (single isomer, unassigned) [Example 10.7] , give its measured IC50 value.
Reply text: 100 to 1000 nM

Inquiry: For the compound O=C(c1c(O)cc(C(F)F)cc1OCc1ccccc1)N1Cc2ccc(OC3CCOCC3)cc2C1 , give its measured IC50 value.
Reply text: 100 to 1000 nM
